# EXPERIMENTAL SYSTEM: Dolichyl-phosphate-mannose--protein mannosyltransferase 1 (Candida albicans (strain SC5314 / ATCC MYA-2876) (Yeast), UniProt O74189)
# Sequence (O74189 whole entry): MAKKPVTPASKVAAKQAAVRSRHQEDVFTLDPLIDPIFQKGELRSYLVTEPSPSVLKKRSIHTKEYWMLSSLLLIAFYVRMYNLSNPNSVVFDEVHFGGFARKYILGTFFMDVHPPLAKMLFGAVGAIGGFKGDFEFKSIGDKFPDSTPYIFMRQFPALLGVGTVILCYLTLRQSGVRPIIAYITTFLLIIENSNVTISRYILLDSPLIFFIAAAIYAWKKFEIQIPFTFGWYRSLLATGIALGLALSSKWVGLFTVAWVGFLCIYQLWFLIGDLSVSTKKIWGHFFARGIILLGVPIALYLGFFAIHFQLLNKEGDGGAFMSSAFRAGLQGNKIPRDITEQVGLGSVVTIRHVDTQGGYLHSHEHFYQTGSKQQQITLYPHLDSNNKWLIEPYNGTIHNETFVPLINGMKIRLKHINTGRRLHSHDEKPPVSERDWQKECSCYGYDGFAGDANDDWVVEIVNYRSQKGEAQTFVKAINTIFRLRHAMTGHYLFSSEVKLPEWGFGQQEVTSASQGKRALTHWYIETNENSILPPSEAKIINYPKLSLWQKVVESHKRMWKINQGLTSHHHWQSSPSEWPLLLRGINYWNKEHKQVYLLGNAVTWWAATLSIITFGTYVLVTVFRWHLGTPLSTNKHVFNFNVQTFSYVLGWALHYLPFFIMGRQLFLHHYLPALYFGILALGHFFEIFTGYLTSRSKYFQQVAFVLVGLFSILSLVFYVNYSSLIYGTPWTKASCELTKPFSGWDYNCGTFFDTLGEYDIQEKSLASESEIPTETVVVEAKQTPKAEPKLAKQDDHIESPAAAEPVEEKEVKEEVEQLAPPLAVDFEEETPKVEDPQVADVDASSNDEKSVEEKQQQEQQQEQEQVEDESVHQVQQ
# ASSAY PROCEDURE: In vitro inhibition of Candida albicans protein mannosyl transferase 1
MEASUREMENT LABEL: IC50 (nM)
Please state the figure in nM; there is no need to write the unit.

Record "O=C(O)CN1C(=O)/C(=C/c2ccc(OCCCc3ccccc3)c(OCc3ccccc3)c2)SC1=S" , field IC50: 1400

Record "O=C(O)CN1C(=O)/C(=C/c2ccc(OCc3ccccc3)c(OCc3cccc(C(F)(F)F)c3)c2)SC1=S" , field IC50: 11000

Record "O=C(O)CN1C(=O)/C(=C/c2ccc(OCc3ccc(F)c(F)c3)c(OCc3ccccc3)c2)SC1=S" , field IC50: 2000

Record "O=C(O)CN1C(=O)/C(=C/c2ccc(OCCc3ccc(C(F)(F)F)cc3)c(OCc3ccccc3)c2)SC1=S" , field IC50: 4000

Record "O=C(O)CN1C(=O)/C(=C/c2ccc(OCc3ccccc3)cc2)SC1=S" , field IC50: 55000

Record CC(C)C(Oc1cc(/C=C2\SC(=S)N(CC(=O)O)C2=O)ccc1OCCc1ccccc1)c1ccccc1 (stereo not drawn) , field IC50: 700

Record "O=C(O)CN1C(=O)/C(=C/c2ccc(OCCc3cc(F)cc(F)c3)c(OCc3ccccc3)c2)SC1=S" , field IC50: 850

Record NC(=O)C(Oc1cc(/C=C2\SC(=S)N(CC(=O)O)C2=O)ccc1OCCc1ccccc1)c1ccccc1 (stereo not drawn) , field IC50: 350
